Task for the reader: assign each of the following compounds its reported MIC.
Test system: Enterobacter cloacae
Assay: Antibacterial activity against Enterobacter cloacae ATCC 13047
Assay type: functional
Settings: subsp. cloacae ATCC 13047

I have 6 compounds here; please give me MIC for each one.
1. C/C(=N\NC(=N)N)c1ccc2c(c1)Cc1cc(/C(C)=N/NC(=N)N)ccc1-2.Cl.Cl
2. Cl.N=C(N)N/N=C/c1ccc(-c2ccc(/C=N/Nc3ccc(Cl)cc3)cc2)cc1
3. Cl.N=C(N)N/N=C/c1ccc(-c2ccc(/C=N/Nc3ccc(F)cc3F)cc2)cc1
4. C/C(=N\NC(=N)N)c1ccc(/C(C)=N/NC(=N)N)cc1
5. CC1(C)S[C@@H]2[C@H](NC(=O)[C@H](N)c3ccccc3)C(=O)N2[C@H]1C(=O)O [AMPICILLIN]
6. Cl.Cl.N=C(N)N/N=C/c1ccc(-c2cccc(/C=N/NC(=N)N)c2)cc1

500 µM
> 500 µM
> 500 µM
> 500 µM
> 250 µM
> 500 µM

* * *

Assay: Cytotoxicity against human A549 cells assessed as reduction in cell survival
Format: toxicity, cell-based
Classification by IC50 | ranges: low band: < 4 µg/mL; middle band: ≥ 4 µg/mL and < 7 µg/mL; high band: ≥ 7 µg/mL

Consider the following illustrative entries.
# chemical string, classification
rows = [
    ("Cl.N=C(N)N/N=C/c1ccc(-c2ccc(/C=N/Nc3ccccc3Br)cc2)cc1", "middle band"),
    ("Cl.N=C(N)N/N=C/c1ccc(-c2ccc(/C=N/Nc3ccc(Cl)cc3)cc2)cc1", "middle band"),
    ("C/C(=N\\NC(=N)N)c1cccc(/C(C)=N/NC(=N)N)c1.Cl.Cl", "high band"),
    ("C/C(=N\\NC(=N)N)c1ccc(Cc2ccc(/C(C)=N/NC(=N)N)cc2)cc1.Cl.Cl", "middle band"),
    ("Cl.N=C(N)N/N=C/c1ccc(-c2ccc(/C=N/Nc3ccccc3Cl)cc2)cc1", "low band"),
]

Which bin should I file `C/C(=N\NC(=N)N)c1ccc(-c2ccc(/C(C)=N/NC(=N)N)cc2)cc1.Cl.Cl` under? middle band

Please let me know in which category the item `Cl.N=C(N)N/N=C/c1ccc(-c2ccc(/C=N/Nc3ccc(F)cc3F)cc2)cc1` belongs. middle band

* * *

Kindly supply the reported MIC values for the records listed here.
Tested on: Enterococcus
Assay: Antibacterial activity against vancomycin-resistant Enterococcus
Assay type: functional
Give bare numbers, in µM.

# chemical string, units symbol, data value
records = [
    ("C/C(=N\\NC(=N)N)c1ccc(Oc2ccc(/C(C)=N/NC(=N)N)cc2)cc1.Cl.Cl", "µM", 3.9),
    ("Cl.N=C(N)N/N=C/c1ccc(-c2ccc(/C=N/Nc3ccccc3Br)cc2)cc1", "µM", 2),
    ("CC1(C)S[C@@H]2[C@H](NC(=O)[C@H](N)c3ccccc3)C(=O)N2[C@H]1C(=O)O", "µM", 250),
]

Moving on to the next molecule.
Given `C/C(=N\NC(=N)N)c1ccc(-c2ccc(/C(C)=N/Nc3ccccc3Cl)cc2)cc1` , state its recorded MIC. 3.9

* * *

Test system: Listeria monocytogenes
Assay: Antibacterial activity against Listeria monocytogenes ATCC 19115
Format: functional
Please provide measured MIC for the entries that follow.
One number for each entry, in µM.

Below, each entry is followed by its recorded MIC result.
# compound, system name, MIC, µM
measured = [
    ("Cl.Cl.N=C(N)N/N=C/c1ccc(-c2ccc(/C=N/NC(=N)N)cc2)cc1", "Listeria monocytogenes", 1),
    ("Cl.Cl.N=C(N)N/N=C/c1ccc(-c2cccc(/C=N/NC(=N)N)c2)cc1", "Listeria monocytogenes", 1),
    ("CC1(C)S[C@@H]2[C@H](NC(=O)[C@H](N)c3ccccc3)C(=O)N2[C@H]1C(=O)O", "Listeria monocytogenes", 250),
    ("N=C(N)N/N=C/c1ccc(-c2ccc(/C=N/Nc3ccc(Cl)cc3Cl)cc2)cc1", "Listeria monocytogenes", 7.8),
]

Batch request: MIC for each of the following compounds.
1. NCC[C@H](O)C(=O)N[C@@H]1C[C@H](N)[C@@H](O[C@H]2O[C@H](CN)[C@@H](O)[C@H](O)[C@H]2O)[C@H](O)[C@H]1O[C@H]1O[C@H](CO)[C@@H](O)[C@H](N)[C@H]1O
2. CC1COc2c(N3CCN(C)CC3)c(F)cc3c(=O)c(C(=O)O)cn1c23 (stereo not given)
3. C/C(=N\NC(=N)N)c1cccc(/C(C)=N/NC(=N)N)c1.Cl.Cl
4. Cl.N=C(N)N/N=C/c1ccc(-c2ccc(/C=N/Nc3ccccc3Br)cc2)cc1
5. Cl.N#Cc1ccc(N/N=C/c2ccc(-c3ccc(/C=N/NC(=N)N)cc3)cc2)cc1

3.9
1
250
2
7.8

* * *

Assay: Cytotoxicity against human BEAS2B cells assessed as reduction in cell survival
Type: toxicity, cell-based
Conditions: beas-2b
For each of the compounds below, state its IC50.
Form field: result (number plus unit)

In the examples that follow, each entry is paired with its recorded IC50.
# compound, IC50
measured = [
    ("Cl.N=C(N)N/N=C/c1ccc(-c2ccc(/C=N/Nc3ccccc3Cl)cc2)cc1", "2.3 µg/mL"),
    ("C/C(=N\\NC(=N)N)c1ccc2c(c1)Cc1cc(/C(C)=N/NC(=N)N)ccc1-2.Cl.Cl", "1.8 µg/mL"),
    ("C/C(=N\\NC(=N)N)c1ccc(Cc2ccc(/C(C)=N/NC(=N)N)cc2)cc1.Cl.Cl", "2.9 µg/mL"),
    ("C[C@@H]1[C@H](O)[C@@H](C)/C=C/C=C/C=C/C=C/C=C/C=C/C=C/[C@H](O[C@@H]2O[C@H](C)[C@@H](O)[C@H](N)[C@@H]2O)C[C@@H]2O[C@](O)(C[C@@H](O)C[C@@H](O)[C@H](O)CC[C@@H](O)C[C@@H](O)CC(=O)O[C@H]1C)C[C@H](O)[C@H]2C(=O)O [AMPHOTERICIN B]", "17.7 µg/mL"),
    ("Cl.N=C(N)N/N=C/c1ccc(-c2ccc(/C=N/Nc3ccc(F)cc3F)cc2)cc1", "5.8 µg/mL"),
    ("Cl.Cl.N=C(N)N/N=C/c1ccc(-c2cccc(/C=N/NC(=N)N)c2)cc1", "5.7 µg/mL"),
]

Look up IC50 for this compound: `C/C(=N\NC(=N)N)c1ccc(-c2ccc(/C(C)=N/NC(=N)N)cc2)cc1.Cl.Cl` 1.7 µg/mL

* * *

Test system: Acinetobacter baumannii
Assay: Antibacterial activity against Acinetobacter baumannii ATCC 19606
Format: functional
test readout: MIC

Past entries and their recorded results:
# molecule, MIC
records = [
    ("C/C(=N\\NC(=N)N)c1cccc(/C(C)=N/NC(=N)N)c1.Cl.Cl", "> 500 µM"),
    ("Cl.N=C(N)N/N=C/c1ccc(-c2ccc(/C=N/Nc3ccccc3Br)cc2)cc1", "> 500 µM"),
    ("NCC[C@H](O)C(=O)N[C@@H]1C[C@H](N)[C@@H](O[C@H]2O[C@H](CN)[C@@H](O)[C@H](O)[C@H]2O)[C@H](O)[C@H]1O[C@H]1O[C@H](CO)[C@@H](O)[C@H](N)[C@H]1O [AMIKACIN]", "31.3 µM"),
    ("Cl.N=C(N)N/N=C/c1ccc(-c2ccc(/C=N/Nc3ccccc3Cl)cc2)cc1", "> 500 µM"),
    ("CC1COc2c(N3CCN(C)CC3)c(F)cc3c(=O)c(C(=O)O)cn1c23 (stereo not drawn) [OFLOXACIN]", "≤ 0.5 µM"),
    ("C/C(=N\\NC(=N)N)c1ccc(/C(C)=N/NC(=N)N)cc1", "500 µM"),
]

Please report MIC for every entry that follows.
1. C/C(=N\NC(=N)N)c1ccc(-c2ccc(/C(C)=N/Nc3ccccc3Cl)cc2)cc1
2. N=C(N)N/N=C/c1ccc(-c2ccc(/C=N/Nc3ccc(Cl)cc3Cl)cc2)cc1

1. 62.5 µM
2. > 500 µM

* * *

Exercise: for every item that follows, state its recorded IC50.
Test: Cytotoxicity against human BEAS2B cells assessed as reduction in cell survival
Type: toxicity, cell-based
Settings: beas-2b
Numbers only, in µg/mL.

Known results for compounds:
# chemical string, IC50 / µg/mL
records = [
    ("Cl.N=C(N)N/N=C/c1ccc(-c2ccc(/C=N/Nc3ccccc3Br)cc2)cc1", 3.4),
    ("Cl.N#Cc1ccc(N/N=C/c2ccc(-c3ccc(/C=N/NC(=N)N)cc3)cc2)cc1", 1.9),
]

Provide the reported IC50 of each entry below, same order.
1. Cl.N=C(N)N/N=C/c1ccc(-c2ccc(/C=N/Nc3ccc(Cl)cc3)cc2)cc1
2. C/C(=N\NC(=N)N)c1ccc(CCc2ccc(/C(C)=N/NC(=N)N)cc2)cc1.Cl.Cl

1. 6
2. 1.8

Parameter requested: IC50. Apply to each item below.
1. Cl.Cl.N=C(N)N/N=C/c1ccc(-c2ccc(/C=N/NC(=N)N)cc2)cc1
2. C/C(=N\NC(=N)N)c1cccc(/C(C)=N/NC(=N)N)c1.Cl.Cl
3. C/C(=N\NC(=N)N)c1ccc(Oc2ccc(/C(C)=N/NC(=N)N)cc2)cc1.Cl.Cl

1: 3; 2: 33; 3: 2.9
